B1: Storkhead-box protein 2, residues 64 to 141; numbered along this chain, Q9P2F5 (parent)
chain: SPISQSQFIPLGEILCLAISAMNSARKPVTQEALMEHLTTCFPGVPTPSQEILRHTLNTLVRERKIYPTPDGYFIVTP

# Variants of: B1
# measurement protocol: abundance fitness (aPCA) (normalised: wild type 0, dead -1); higher = more abundant; growth selection in yeast, the domain comes from the species named
# run conditions: Homo sapiens
Tick Satisfied if abundance fitness is -0.08 or greater. Tick Not satisfied if abundance fitness is less than -0.08.

# mutation id, assigned class
data = [
    ("L38H", "Not satisfied"),
    ("S49P", "Not satisfied"),
    ("A18D", "Not satisfied"),
    ("P10W", "Satisfied"),
]

Decide: abundance fitness of Q5Y >= -0.08?
Satisfied

Textbook exercise: given the entry S24F , state whether its abundance fitness is greater than or equal to -0.08.
Not satisfied

Does the variant I14K have recorded abundance fitness that is -0.08 or more?
Satisfied

Is the recorded value of abundance fitness equal to or greater than -0.08 for this variant? V29W
Not satisfied

Evaluate R64D : abundance fitness at minimum -0.08?
Satisfied

Say whether Q5F shows abundance fitness of -0.08 or more.
Not satisfied

Does the reported abundance fitness for S1C fall at or above the -0.08 mark?
Not satisfied

Check if abundance fitness >= -0.08 (inclusive). Item: P10T
Satisfied

Could you please find out whether M22L has abundance fitness that meets -0.08 or exceeds it?
Satisfied
